Data provenance: ChEMBL document CHEMBL4330066

Test system: Trypanosoma brucei
METHOD NOTES: Stabilization of 5'-FAM /3'-Tamra labelled Trypanosoma brucei F21T G-quadruplex DNA in presence of 1 x 10^-5 M dsDNA competitior by FRET melting assay
Activity calls are given as the source filed them. The rule behind the calls is not given here.
PROPERTY NAME: Activity

INSERT INTO results (structure_smiles_string, target_or_system, property_name, data_value) VALUES
  ('CN(C)CCCc1cc2c3c(c(NCCCn4cc(CCO[C@@H]5O[C@H](CO)[C@@H](O)[C@H](O)[C@H]5O)nn4)cc4c3c1C(=O)N(CCCN(C)C)C4=O)C(=O)N(CCCN(C)C)C2=O', 'Trypanosoma brucei', 'Activity', 'Active'),
  ('CN(C)CCCN1C(=O)c2ccc3c4c(c(NCCCn5cc(CCO[C@@H]6O[C@H](CO)[C@@H](O)[C@H](O)[C@H]6O)nn5)cc(c24)C1=O)C(=O)N(CCCN(C)C)C3=O', 'Trypanosoma brucei', 'Activity', 'Active'),
  ('CN(C)CCCN1C(=O)c2ccc3c4c(c(NCCCn5cc(COCCOCCOCCO[C@@H]6O[C@H](CO)[C@@H](O)[C@H](O)[C@H]6O)nn5)cc(c24)C1=O)C(=O)N(CCCN(C)C)C3=O', 'Trypanosoma brucei', 'Activity', 'Active'),
  ('CN(C)CCCN1C(=O)c2ccc3c4c(c(NCCCn5cc(COCCOCCOCCO[C@@H]6O[C@H](CO)[C@@H](O[C@@H]7O[C@H](CO)[C@H](O)[C@H](O)[C@H]7O)[C@H](O)[C@H]6O)nn5)cc(c24)C1=O)C(=O)N(CCCN(C)C)C3=O', 'Trypanosoma brucei', 'Activity', 'Active');

----------
Below, each of the compounds is paired with its reported IC50 value.
Tested on: Leishmania major
METHOD NOTES: Leishmaniacidal activity against Leishmania major MHOM/IL/80/Friedlin promastigotes after 72 hrs by MTT assay
Assay type: functional, organism-based
PROPERTY NAME: IC50 (nM)

INSERT INTO assay_data (structure_smiles_string, property_name, data_value) VALUES
  ('CCCNc1cc2c3c(c(CCCN(C)C)cc4c3c1C(=O)N(CCCN(C)C)C4=O)C(=O)N(CCCN(C)C)C2=O', 'IC50', 740),
  ('CN(C)CCCN1C(=O)c2ccc3c4c(c(NCCCn5cc(CO[C@H]6O[C@H](CO)[C@@H](O)[C@H](O)[C@@H]6O)nn5)cc(c24)C1=O)C(=O)N(CCCN(C)C)C3=O', 'IC50', 2410),
  ('CN(C)CCCc1cc2c3c(c(NCCCn4cc(CO[C@@H]5O[C@H](CO)[C@@H](O)[C@H](O)[C@H]5O)nn4)cc4c3c1C(=O)N(CCCN(C)C)C4=O)C(=O)N(CCCN(C)C)C2=O', 'IC50', 490),
  ('CN(C)CCCN1C(=O)c2ccc3c4c(c(NCCCn5cc(CCO[C@@H]6O[C@H](CO)[C@@H](O)[C@H](O)[C@H]6O)nn5)cc(c24)C1=O)C(=O)N(CCCN(C)C)C3=O', 'IC50', 70);

----------
METHOD NOTES: Selectivity index, ratio of TC50 for human THP1 cells to IC50 for Leishmania major MHOM/IL/80/Friedlin amastigotes
Format: toxicity
MEASUREMENT SETUP: THP1 cells versus Leishmania major amastigotes, read-out: Selectivity Index
PROPERTY NAME: selectivity ratio

INSERT INTO measurements (structure_smiles_string, property_name, inequality_operator, data_value) VALUES
  ('CN(C)CCCN1C(=O)c2ccc3c4c(c(NCc5cn(CCO[C@@H]6O[C@H](CO)[C@@H](O)[C@H](O)[C@H]6O)nn5)cc(c24)C1=O)C(=O)N(CCCN(C)C)C3=O', 'selectivity ratio', '=', 2),
  ('CN(C)CCCc1cc2c3c(c(NCCCn4cc(COCCOCCOCCO[C@@H]5O[C@H](CO)[C@@H](O)[C@H](O)[C@H]5O)nn4)cc4c3c1C(=O)N(CCCN(C)C)C4=O)C(=O)N(CCCN(C)C)C2=O', 'selectivity ratio', '>', 2.8),
  ('CN(C)CCCN1C(=O)c2ccc3c4c(c(NCCCn5cc(CCO[C@@H]6O[C@H](CO)[C@@H](O[C@@H]7O[C@H](CO)[C@H](O)[C@H](O)[C@H]7O)[C@H](O)[C@H]6O)nn5)cc(c24)C1=O)C(=O)N(CCCN(C)C)C3=O', 'selectivity ratio', '>', 2.1),
  ('CN(C)CCCN1C(=O)c2ccc3c4c(c(NCCCn5cc(CO[C@H]6O[C@H](CO)[C@@H](O)[C@H](O)[C@@H]6O)nn5)cc(c24)C1=O)C(=O)N(CCCN(C)C)C3=O', 'selectivity ratio', '=', 3.8),
  ('CN(C)CCCN1C(=O)c2ccc3c4c(c(NCCCn5cc(COCCOCCOCCO[C@@H]6O[C@H](CO)[C@@H](O)[C@H](O)[C@H]6O)nn5)cc(c24)C1=O)C(=O)N(CCCN(C)C)C3=O', 'selectivity ratio', '=', 3.9),
  ('CN(C)CCCN1C(=O)c2ccc3c4c(c(NCCCn5cc(COCCOCCOCCO[C@@H]6O[C@H](CO)[C@@H](O[C@H]7O[C@H](CO)[C@@H](O)[C@H](O)[C@H]7O)[C@H](O)[C@H]6O)nn5)cc(c24)C1=O)C(=O)N(CCCN(C)C)C3=O', 'selectivity ratio', '>', 2.2),
  ('CN(C)CCCN1C(=O)c2ccc3c4c(c(NCCCn5cc(CCO[C@@H]6O[C@H](CO)[C@@H](O)[C@H](O)[C@H]6O)nn5)cc(c24)C1=O)C(=O)N(CCCN(C)C)C3=O', 'selectivity ratio', '=', 3),
  ('CN(C)CCCN1C(=O)c2ccc3c4c(c(NCCCn5cc(COCCOCCOCCO[C@@H]6O[C@H](CO)[C@@H](O[C@@H]7O[C@H](CO)[C@H](O)[C@H](O)[C@H]7O)[C@H](O)[C@H]6O)nn5)cc(c24)C1=O)C(=O)N(CCCN(C)C)C3=O', 'selectivity ratio', '=', 10.8),
  ('CN(C)CCCc1cc2c3c(c(NCCCn4cc(CO[C@@H]5O[C@H](CO)[C@@H](O)[C@H](O)[C@H]5O)nn4)cc4c3c1C(=O)N(CCCN(C)C)C4=O)C(=O)N(CCCN(C)C)C2=O', 'selectivity ratio', '>', 3.8),
  ('CN(C)CCCN1C(=O)c2ccc3c4c(c(NCCCn5cc(CO[C@@H]6O[C@H](CO)[C@@H](O)[C@H](O)[C@H]6O)nn5)cc(c24)C1=O)C(=O)N(CCCN(C)C)C3=O', 'selectivity ratio', '=', 2.2),
  ('CN(C)CCCN1C(=O)c2ccc3c4c(c(NCCCn5cc(CCO[C@@H]6O[C@H](CO)[C@@H](O[C@H]7O[C@H](CO)[C@@H](O)[C@H](O)[C@H]7O)[C@H](O)[C@H]6O)nn5)cc(c24)C1=O)C(=O)N(CCCN(C)C)C3=O', 'selectivity ratio', '=', 3.5),
  ('CN(C)CCCN1C(=O)c2ccc3c4c(c(NCc5cn([C@@H]6O[C@H](CO)[C@@H](O)[C@H](O)[C@H]6O)nn5)cc(c24)C1=O)C(=O)N(CCCN(C)C)C3=O', 'selectivity ratio', '=', 2.1),
  ('CN(C)CCCN1C(=O)c2ccc3c4c(c(NCCCn5cc(CO[C@@H]6O[C@H](CO)[C@@H](O[C@@H]7O[C@H](CO)[C@H](O)[C@H](O)[C@H]7O)[C@H](O)[C@H]6O)nn5)cc(c24)C1=O)C(=O)N(CCCN(C)C)C3=O', 'selectivity ratio', '=', 2),
  ('CCCNc1cc2c3c(ccc4c3c1C(=O)N(CCCN(C)C)C4=O)C(=O)N(CCCN(C)C)C2=O', 'selectivity ratio', '=', 6);

----------
METHOD NOTES: Cytotoxicity against human THP1 cells
Assay type: cell-based
MEASUREMENT SETUP: THP-1 cells, read-out: TC50 (the source's name)
PROPERTY NAME: CC50 (µM)

INSERT INTO results (structure_smiles_string, property_name, value_units, inequality_operator, data_value) VALUES
  ('CCCNc1cc2c3c(ccc4c3c1C(=O)N(CCCN(C)C)C4=O)C(=O)N(CCCN(C)C)C2=O', 'CC50', 'µM', '=', 3.65),
  ('CN(C)CCCc1cc2c3c(c(NCCCn4cc(CO[C@H]5O[C@H](CO)[C@@H](O)[C@H](O)[C@@H]5O)nn4)cc4c3c1C(=O)N(CCCN(C)C)C4=O)C(=O)N(CCCN(C)C)C2=O', 'CC50', 'µM', '>', 10),
  ('CN(C)CCCN1C(=O)c2ccc3c4c(c(NCCCn5cc(COCCOCCOCCO[C@@H]6O[C@H](CO)[C@@H](O[C@@H]7O[C@H](CO)[C@H](O)[C@H](O)[C@H]7O)[C@H](O)[C@H]6O)nn5)cc(c24)C1=O)C(=O)N(CCCN(C)C)C3=O', 'CC50', 'µM', '=', 5.71),
  ('CN(C)CCCN1C(=O)c2ccc3c4c(c(NCCCn5cc(COCCOCCOCCO[C@@H]6O[C@H](CO)[C@@H](O)[C@H](O)[C@H]6O)nn5)cc(c24)C1=O)C(=O)N(CCCN(C)C)C3=O', 'CC50', 'µM', '=', 1.86),
  ('CN(C)CCCN1C(=O)c2ccc3c4c(c(NCCCn5cc(CO[C@H]6O[C@H](CO)[C@@H](O)[C@H](O)[C@@H]6O)nn5)cc(c24)C1=O)C(=O)N(CCCN(C)C)C3=O', 'CC50', 'µM', '=', 1.78),
  ('CN(C)CCCN1C(=O)c2ccc3c4c(c(NCc5cn(CCO[C@@H]6O[C@H](CO)[C@@H](O)[C@H](O)[C@H]6O)nn5)cc(c24)C1=O)C(=O)N(CCCN(C)C)C3=O', 'CC50', 'µM', '=', 8.65),
  ('CN(C)CCCc1cc2c3c(c(NCCCn4cc(CCO[C@@H]5O[C@H](CO)[C@@H](O[C@@H]6O[C@H](CO)[C@H](O)[C@H](O)[C@H]6O)[C@H](O)[C@H]5O)nn4)cc4c3c1C(=O)N(CCCN(C)C)C4=O)C(=O)N(CCCN(C)C)C2=O', 'CC50', 'µM', '>', 10);
